FYI, the data here is from patent EP4714976A1.

Molecular target: extracellular domain of FGFR2c protein (Example 1) (UniProt P21802)
Sequence (P21802 22-377): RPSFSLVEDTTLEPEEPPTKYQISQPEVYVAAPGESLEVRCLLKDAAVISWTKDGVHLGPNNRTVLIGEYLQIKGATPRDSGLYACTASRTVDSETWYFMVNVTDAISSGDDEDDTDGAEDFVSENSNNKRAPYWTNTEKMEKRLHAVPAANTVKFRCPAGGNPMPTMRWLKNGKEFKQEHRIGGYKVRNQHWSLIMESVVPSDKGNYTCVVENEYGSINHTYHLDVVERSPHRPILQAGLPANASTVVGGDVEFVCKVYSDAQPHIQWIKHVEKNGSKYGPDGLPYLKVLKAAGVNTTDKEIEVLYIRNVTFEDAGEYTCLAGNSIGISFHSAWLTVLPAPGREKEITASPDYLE
Test: phage ELISA
parameter: OD (450 nm) value
I only need the number, thanks.

# lookup: OD (450 nm) value of 3D6 scFv displayed on phage (scFv) scFv: QVQLQQSGAELVKPGASVKMSCKASGYTFRYYNMHWVKRTPGQGLEWIGLIYPDNGDTSYNQKFKGKATLTADTSSSTAYMQLSSLTSEDSAVYYCARGGLDYWGQGTSLTVSSGGGGSGGGGSGGGGSDIQMTQSPASLSVSVGETVTITCRASENIYSNLAWYQQKQGKSPQLLVYNAKTLADGVPSRFSGSGSGTQYSLKINSLQPEDFGSYYCQHFWSTPFTFGSGTKLELK
0.037
